This collection of values is drawn from PubChem BioAssay AID617.

- System: E. coli BW25113 ΔtolC growth inhibition, OD615
- ASSAY COMMENT: growth inhibitors of E. coli tolC mutant, dose response, strain BW25113 ΔtolC::kan (AID 617);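 note: growth read after 20 h at 37 °C with compound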
Measured IC50 of individual entries

Example compounds with recorded IC50:
                                   compound  endpoint_result
0    Oc1ccc(-c2[nH]ncc2-c2ccc(Cl)cc2)c(O)c1          11.1 µM
1  O=C1CC(O)(C(F)(F)F)Oc2c1ccc1ccccc21 (stereo not drawn)          1.19 µM
2  COc1cc2c3c(c1)C1(C(=O)N3C(C)(C)C=C2C)C(C#N)=C(N)Oc2cc(O)ccc21 (stereo not drawn)          6.64 µM
3         Cc1cc(C(=O)OCc2nc3ccccc3s2)c(C)o1          32.6 µM

[ask] IC50 of O=C1c2ccccc2C(=O)N1CCC(c1ccc(F)cc1)c1ccco1 (stereo not drawn) on E. coli BW25113 ΔtolC growth inhibition, OD615?
[reply] 13.4 µM

[ask] Quick check: IC50 on E. coli BW25113 ΔtolC growth inhibition, OD615, item CSc1nc2ccc(NS(=O)(=O)c3ccc4c(c3)OCCO4)cc2s1 ?
[reply] 2.88 µM

[ask] Field: IC50 (E. coli BW25113 ΔtolC growth inhibition, OD615). Entry: CC(C)c1nc(N2CCOCC2)c(C#N)c2c1CCCC2
[reply] 18 µM
